Tested on: Candida pseudotropicalis K. 11658
assay_name: In vitro antifungal activity, microbroth dilution MIC
Format: cell-based
particulars: C. pseudotropicalis K. 11658, RPMI-1640, 35° C., 4 to 48 hours
Output Criterion met for Minimal inhibitory concentration (MIC) not less than 10 µg/mL; output Criterion not met otherwise.

Recorded results for 7 compounds are shown here.
# compound, tested_system, answer_label
records = [
    ("Cc1cc(C)cc(C=C(F)OCC2COC(Cn3ccnc3)(c3ccc(Cl)cc3Cl)O2)c1 (centres unmarked)", "Candida pseudotropicalis K. 11658", "Criterion met"),
    ("COc1cccc(C(=C(F)OCC2COC(Cn3ccnc3)(c3ccc(F)cc3F)O2)C(F)(F)F)c1 (mixture of isomers)", "Candida pseudotropicalis K. 11658", "Criterion met"),
    ("FC(OCC1COC(Cn2ccnc2)(c2ccc(F)cc2F)O1)=C(c1ccc(F)cc1)C(F)(F)F (mixture of isomers)", "Candida pseudotropicalis K. 11658", "Criterion met"),
    ("FC(=Cc1ccc2c(c1)OCO2)OCC1COC(Cn2ccnc2)(c2ccc(Cl)cc2Cl)O1 (centres unmarked)", "Candida pseudotropicalis K. 11658", "Criterion not met"),
    ("Cc1cc(C=C(F)OCC2COC(Cn3ccnc3)(c3ccc(F)cc3F)O2)ccc1Cl (mixture of isomers)", "Candida pseudotropicalis K. 11658", "Criterion met"),
    ("Cc1cccc(C=C(F)OCC2COC(Cn3cncn3)(c3ccc(Cl)cc3Cl)O2)c1 (mixture of isomers)", "Candida pseudotropicalis K. 11658", "Criterion met"),
    ("FC(=Cc1cccc(F)c1)OCC1COC(Cn2ccnc2)(c2ccc(F)cc2F)O1 (mixture of isomers)", "Candida pseudotropicalis K. 11658", "Criterion met"),
]

Req: Would you say Cc1cc(C=C(F)OCC2COC(Cn3ccnc3)(c3ccc(Cl)cc3Cl)O2)ccc1Cl (centres unmarked) shows Minimal inhibitory concentration (MIC) at minimum 10 µg/mL?
Resp: Criterion not met
